Target: UniProt P48736
Assay: Fluorescent (HTRF) determination of PI3 kinase enzyme activity, PI3Kγ
Assay type: biochemical
Settings: 100 nM (Examples 60-137)
quantity-kind: inhibition at 0.1 µM

Worked examples, 4 compounds total:
> print(dat)
                                   compound         quantity.kind  reported.result
1  CC(c1oc2cccc(F)c2c(=O)c1-c1cccc(F)c1)n1cnc2c(N3CCOCC3)ncnc21 (centres unmarked)  inhibition at 0.1 µM        25 to 50%
2  COc1nc(N[C@H](C)c2oc3cccc(F)c3c(=O)c2-c2cccc(F)c2)c2nc[nH]c2n1 (single isomer, unassigned)  inhibition at 0.1 µM        25 to 50%
3  CC(c1oc2cccc(F)c2c(=O)c1-c1ccc(F)cc1)n1cnc2c(N3CCN(C)CC3)ncnc21 (centres unmarked)  inhibition at 0.1 µM         0 to 25%
4  CC(C)Oc1ccc(-c2nn(C(C)c3oc4cccc(N5CCOCC5)c4c(=O)c3-c3ccccc3)c3ncnc(N)c23)cc1F (centres unmarked)  inhibition at 0.1 µM        50 to 75%

Next compound, please.
Item under review: CC(c1oc2cccc(F)c2c(=O)c1-c1cccc(F)c1)n1nc(-c2ccc3c(c2)C(=O)NC3)c2c(N)ncnc21 (centres unmarked) . Reported inhibition at 0.1 µM? 0 to 25%

* * *

Biological target: PI3kδ (Homo sapiens)
Sequence (O00329 whole entry): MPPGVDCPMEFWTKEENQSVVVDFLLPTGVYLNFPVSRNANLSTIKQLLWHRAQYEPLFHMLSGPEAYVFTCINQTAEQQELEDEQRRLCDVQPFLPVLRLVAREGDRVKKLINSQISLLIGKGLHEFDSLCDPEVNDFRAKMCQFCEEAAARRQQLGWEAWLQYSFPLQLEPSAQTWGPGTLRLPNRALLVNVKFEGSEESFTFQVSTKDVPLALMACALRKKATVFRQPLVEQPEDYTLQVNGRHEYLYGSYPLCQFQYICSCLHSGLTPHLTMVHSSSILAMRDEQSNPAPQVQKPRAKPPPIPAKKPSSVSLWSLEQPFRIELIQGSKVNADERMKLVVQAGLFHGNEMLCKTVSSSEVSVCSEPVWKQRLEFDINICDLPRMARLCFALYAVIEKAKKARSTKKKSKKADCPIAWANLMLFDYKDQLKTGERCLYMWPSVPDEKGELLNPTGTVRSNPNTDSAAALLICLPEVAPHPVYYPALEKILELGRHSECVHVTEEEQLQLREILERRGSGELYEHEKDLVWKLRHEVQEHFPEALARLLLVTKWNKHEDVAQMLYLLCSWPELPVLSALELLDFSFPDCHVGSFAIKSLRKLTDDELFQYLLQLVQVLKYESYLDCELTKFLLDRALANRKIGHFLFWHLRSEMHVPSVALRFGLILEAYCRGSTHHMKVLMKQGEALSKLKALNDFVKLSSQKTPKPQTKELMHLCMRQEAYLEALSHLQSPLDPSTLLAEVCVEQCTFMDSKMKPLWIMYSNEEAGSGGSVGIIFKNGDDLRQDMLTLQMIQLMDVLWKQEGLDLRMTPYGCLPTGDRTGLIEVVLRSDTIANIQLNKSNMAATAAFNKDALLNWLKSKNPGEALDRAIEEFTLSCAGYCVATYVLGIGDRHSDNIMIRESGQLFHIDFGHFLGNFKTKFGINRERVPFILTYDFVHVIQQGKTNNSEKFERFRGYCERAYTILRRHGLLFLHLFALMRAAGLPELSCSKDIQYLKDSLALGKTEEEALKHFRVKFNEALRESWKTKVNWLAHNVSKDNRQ
Sequence (P27986 whole entry partner): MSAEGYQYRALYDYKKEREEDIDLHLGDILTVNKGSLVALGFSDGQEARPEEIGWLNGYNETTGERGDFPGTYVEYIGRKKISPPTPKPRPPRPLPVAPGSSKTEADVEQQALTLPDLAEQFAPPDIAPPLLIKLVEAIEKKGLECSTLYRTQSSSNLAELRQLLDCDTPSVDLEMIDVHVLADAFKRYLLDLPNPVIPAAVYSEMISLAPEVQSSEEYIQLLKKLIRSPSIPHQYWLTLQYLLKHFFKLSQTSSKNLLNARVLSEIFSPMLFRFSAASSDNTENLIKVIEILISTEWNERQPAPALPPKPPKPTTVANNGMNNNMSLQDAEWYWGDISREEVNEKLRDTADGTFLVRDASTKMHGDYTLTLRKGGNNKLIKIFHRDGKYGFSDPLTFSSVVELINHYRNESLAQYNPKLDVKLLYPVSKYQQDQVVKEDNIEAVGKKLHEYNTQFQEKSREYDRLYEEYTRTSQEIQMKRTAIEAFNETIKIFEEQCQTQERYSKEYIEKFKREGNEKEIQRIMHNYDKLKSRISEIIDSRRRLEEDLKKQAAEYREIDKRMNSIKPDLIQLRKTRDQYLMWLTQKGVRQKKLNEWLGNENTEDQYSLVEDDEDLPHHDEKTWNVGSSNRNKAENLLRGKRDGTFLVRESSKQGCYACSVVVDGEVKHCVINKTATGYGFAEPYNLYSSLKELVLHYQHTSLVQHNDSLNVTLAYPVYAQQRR
Test: Fluorescent (HTRF) determination of PI3 kinase enzyme activity, PI3Kδ
Type: biochemical
Conditions: 100 nM (Examples 60-137)
quantity-kind: inhibition at 0.1 µM

> print(dat)
                                   compound         quantity.kind  reported.result
1  CC(c1oc2cccc(F)c2c(=O)c1-c1cccc(F)c1)n1nc(C#CCO)c2c(N)ncnc21 (centres unmarked)  inhibition at 0.1 µM        25 to 50%
2  CC(C)Oc1ccc(-c2nn(C(C)c3oc4cccc(F)c4c(=O)c3-c3ccc(F)cc3)c3ncnc(N)c23)cc1F (single isomer, unassigned) [Example 95]  inhibition at 0.1 µM        25 to 50%
3  CC(c1oc2cccc(F)c2c(=O)c1-c1cccc(F)c1)n1nc(-c2ccc(N3CCOCC3)c(Cl)c2)c2c(N)ncnc21 (centres unmarked) [Example 113]  inhibition at 0.1 µM        50 to 75%
4  CC(c1oc2cccc(F)c2c(=O)c1-c1cccc(F)c1)n1nc(-c2cnc3[nH]ccc3c2)c2c(N)ncnc21 (centres unmarked)  inhibition at 0.1 µM        25 to 50%
5  COc1nc(N[C@@H](C)c2oc3cccc(F)c3c(=O)c2-c2cccc(F)c2)c2nc[nH]c2n1 (single isomer, unassigned)  inhibition at 0.1 µM        25 to 50%

# get_value(readout= inhibition at 0.1 µM, system= PI3kδ (Homo sapiens)) for CC(c1oc2cccc(F)c2c(=O)c1-c1cccc(F)c1)n1nc(-c2cccc(NS(C)(=O)=O)c2)c2c(N)ncnc21 (centres unmarked) 50 to 75%

Would you mind doing CC(c1oc2cccc(F)c2c(=O)c1-c1cccc(F)c1)n1nc(-c2ccc3c(c2)C(=O)NC3)c2c(N)ncnc21 (centres unmarked) as well? 25 to 50%

Would you mind doing CC(c1oc2cccc(F)c2c(=O)c1-c1ccccc1)n1nc(-c2ccc(N3CCOCC3)c(F)c2)c2c(N)ncnc21 (centres unmarked) as well? 0 to 25%

Would you mind doing C[C@H](Nc1nc(F)nc2[nH]cnc12)c1oc2cccc(F)c2c(=O)c1-c1cccc(F)c1 (racemic) as well? 25 to 50%

Would you mind doing CC(c1oc2cccc(F)c2c(=O)c1-c1ccc(F)cc1)n1cnc2c(N3CCN(C)CC3)ncnc21 (centres unmarked) as well? 25 to 50%

Would you mind doing CC(=O)c1ccc(-c2nn(C(C)c3oc4cccc(F)c4c(=O)c3-c3cccc(F)c3)c3ncnc(N)c23)cc1F (centres unmarked) as well? 25 to 50%

* * *

Quick reference: melting point of the listed items.

> print(dat)
                                   compound  quantity.kind  reported.result
1  CC(c1oc2cccc(F)c2c(=O)c1-c1cccc(F)c1)n1cnc2c(N3CCN(C)CC3)ncnc21 (stereo not shown)  melting point    199 to 201 °C
2  CC(c1oc2cccc(F)c2c(=O)c1-c1cccc(F)c1)n1cnc2c(N(C)C)ncnc21 (racemic) [Example 129]  melting point    187 to 189 °C
3  C[C@H](c1oc2cccc(F)c2c(=O)c1-c1cccc(F)c1)n1ncc2c(N)ncnc21 [Example 16b]  melting point    198 to 201 °C

Item under review: COc1nc(N[C@@H](C)c2oc3cccc(F)c3c(=O)c2-c2cccc(F)c2)c2nc[nH]c2n1 (single isomer, unassigned) . Reported melting point? 186 to 189 °C

Would you mind doing CC(Nc1ncnc2[nH]cnc12)c1oc2cccc(F)c2c(=O)c1-c1ccccc1F (stereo not shown) as well? 203 to 205 °C

Would you mind doing CC(C)Cc1ccc(-c2nn(C(C)c3oc4cccc(F)c4c(=O)c3-c3cccc(F)c3)c3ncnc(N)c23)cc1 (stereo not shown) as well? 221 to 223 °C

Would you mind doing CC(c1oc2cccc(F)c2c(=O)c1-c1cccc(F)c1)n1nc(-c2ccc(CN3CCOCC3)s2)c2c(N)ncnc21 (stereo not shown) as well? 193 to 196 °C

* * *

Target: UniProtKB O00329
Assay: Fluorescent (HTRF) determination of PI3 kinase enzyme activity, PI3Kδ
Format: biochemical
Conditions: 100 nM (Examples 60-137)
Quick reference: inhibition at 0.1 µM of the listed items.

Worked examples, 4 compounds total:
> print(dat)
                                   compound  reported.result
1  Cc1n[nH]c2cc(-c3nn(C(C)c4oc5cccc(F)c5c(=O)c4-c4cccc(F)c4)c4ncnc(N5CCOCC5)c34)ccc12 (stereo not drawn) [Example 112]        50 to 75%
2  CC(Nc1ncnc2[nH]cnc12)c1oc2cccc(F)c2c(=O)c1-c1cccc(F)c1 (single isomer, unassigned; (-)) [Example 78]        50 to 75%
3  COC(=O)c1cc(-c2nn(C(C)c3oc4cccc(F)c4c(=O)c3-c3cccc(F)c3)c3ncnc(N)c23)cs1 (stereo not drawn) [Example 61]        25 to 50%
4  CC(=O)Nc1ccc(-c2nn(C(C)c3oc4cccc(F)c4c(=O)c3-c3cccc(F)c3)c3ncnc(N)c23)cc1F (stereo not drawn) [Example 82]        25 to 50%

# get_value(readout= inhibition at 0.1 µM, system= UniProtKB O00329) for CCOc1ccc(-c2nn(C(C)c3oc4cccc(F)c4c(=O)c3-c3cccc(F)c3)c3ncnc(N)c23)cc1C(F)(F)F (stereo not drawn) [Example 132] 50 to 75%

Would you mind doing CC(C)C(=O)Nc1ccc(-c2nn(C(C)c3oc4cccc(F)c4c(=O)c3-c3ccc(F)cc3)c3ncnc(N4CCOCC4)c23)cc1F (stereo not drawn) [Example 86] as well? 50 to 75%

* * *

Biological target: PI3kγ (Homo sapiens, UniProt P48736)
Sequence (P48736 whole entry): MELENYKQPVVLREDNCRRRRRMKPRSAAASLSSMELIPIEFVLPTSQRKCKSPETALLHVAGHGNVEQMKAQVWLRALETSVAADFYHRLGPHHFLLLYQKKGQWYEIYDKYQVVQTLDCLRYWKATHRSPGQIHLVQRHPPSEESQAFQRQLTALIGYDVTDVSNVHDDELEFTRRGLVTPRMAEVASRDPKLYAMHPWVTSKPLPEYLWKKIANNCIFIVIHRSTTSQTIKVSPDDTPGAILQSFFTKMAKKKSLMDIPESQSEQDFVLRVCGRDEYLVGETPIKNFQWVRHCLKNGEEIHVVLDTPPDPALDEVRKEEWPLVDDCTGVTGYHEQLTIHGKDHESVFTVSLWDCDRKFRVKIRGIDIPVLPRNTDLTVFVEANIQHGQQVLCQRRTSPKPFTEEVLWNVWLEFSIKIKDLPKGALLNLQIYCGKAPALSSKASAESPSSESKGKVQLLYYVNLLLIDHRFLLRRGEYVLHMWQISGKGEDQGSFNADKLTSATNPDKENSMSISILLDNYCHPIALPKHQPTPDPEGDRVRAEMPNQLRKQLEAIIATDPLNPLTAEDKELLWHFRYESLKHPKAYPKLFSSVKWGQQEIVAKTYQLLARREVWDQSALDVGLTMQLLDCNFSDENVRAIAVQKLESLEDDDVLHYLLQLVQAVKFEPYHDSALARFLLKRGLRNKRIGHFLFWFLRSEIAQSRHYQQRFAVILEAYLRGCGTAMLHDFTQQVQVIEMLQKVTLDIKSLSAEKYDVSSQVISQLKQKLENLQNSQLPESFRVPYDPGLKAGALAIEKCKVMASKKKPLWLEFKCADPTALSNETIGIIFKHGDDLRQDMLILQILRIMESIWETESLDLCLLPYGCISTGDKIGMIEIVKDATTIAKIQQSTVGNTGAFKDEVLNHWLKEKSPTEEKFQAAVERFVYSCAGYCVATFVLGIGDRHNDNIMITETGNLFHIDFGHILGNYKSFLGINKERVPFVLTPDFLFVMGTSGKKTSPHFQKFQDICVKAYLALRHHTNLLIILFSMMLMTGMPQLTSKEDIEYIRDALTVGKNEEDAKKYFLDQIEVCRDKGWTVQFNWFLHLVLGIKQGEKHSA
Experiment: Fluorescent (HTRF) determination of PI3 kinase enzyme activity, PI3Kγ
Format: biochemical
Conditions: 100 nM (Examples 60-137); 0.1 µM
quantity-kind: % inhibition (PI3kγ) 100 nM

Worked examples, 5 compounds total:
> print(dat)
                                   compound   reported.result
1  CC(c1oc2cccc(F)c2c(=O)c1-c1cccc(F)c1)n1nc(-c2ccc(N3CCOCC3)c(Cl)c2)c2c(N)ncnc21 (stereo not drawn) [Example 113]  B (B=>50 to 75%)
2  Cc1cc(-c2nn(C(C)c3oc4cccc(F)c4c(=O)c3-c3cccc(F)c3)c3ncnc(N)c23)ccc1OC(C)C (single isomer, unassigned; (-)) [Example 115]  C (C=>25 to 50%)
3  Cc1cc(-c2nn(C(C)c3oc4cccc(F)c4c(=O)c3-c3cccc(F)c3)c3ncnc(N)c23)ccc1OC(C)C (single isomer, unassigned; (+)) [Example 114]  B (B=>50 to 75%)
4  CC(Nc1ncnc2[nH]cnc12)c1oc2cccc(F)c2c(=O)c1-c1cccc(F)c1 (single isomer, unassigned; (+)) [Example 68]  B (B=>50 to 75%)
5  CC(C)Oc1ccc(-c2nn(C(C)c3oc4cccc(F)c4c(=O)c3-c3cccc(F)c3)c3ncnc(N4CCOCC4)c23)cc1F (stereo not drawn) [Example 85]  C (C=>25 to 50%)

Next compound, please.
Item under review: CC(c1oc2cccc(F)c2c(=O)c1-c1cccc(F)c1)n1cnc2c(N(C)C)ncnc21 (stereo not drawn) [Example 110] . Reported % inhibition (PI3kγ) 100 nM? B (B=>50 to 75%)

* * *

Structures can show the parent of a compound that is named as a salt.
quantity-kind: melting point

Worked examples, 5 molecules total:
> print(dat)
                                   molecule  quantity.kind  reported.result
1  CC(c1oc2cccc(F)c2c(=O)c1-c1cccc(F)c1)n1nc(-c2cnc3[nH]ccc3c2)c2c(N)ncnc21 (stereo not drawn)  melting point    303 to 306 °C
2  CC(Nc1ncnc2[nH]cnc12)c1oc2cccc(F)c2c(=O)c1-c1cccc(F)c1 (single isomer, unassigned; (-)) [Example 78]  melting point    205 to 208 °C
3  Cc1cc(-c2nn(C(C)c3oc4cccc(F)c4c(=O)c3-c3cccc(F)c3)c3ncnc(N)c23)ccc1OC(C)C (stereo not drawn) (as salt: sodium)  melting point    185 to 188 °C
4  CC(c1oc2cccc(F)c2c(=O)c1-c1cccc(F)c1)n1nc(-c2ccc(CNC(=O)OC(C)(C)C)o2)c2c(N)ncnc21 (stereo not drawn)  melting point    163 to 166 °C
5  CC(C)C(=O)Nc1ccc(-c2nn(C(C)c3oc4cccc(F)c4c(=O)c3-c3cccc(F)c3)c3ncnc(N4CCOCC4)c23)cc1F (stereo not drawn)  melting point    168 to 170 °C

Next molecule, please.
Item under review: CC(C)NC(=O)c1ccc(-c2nn(C(C)c3oc4cccc(F)c4c(=O)c3-c3cccc(F)c3)c3ncnc(N)c23)cc1F (stereo not drawn) . Reported melting point? 254 to 257 °C
